testedSystem: human β2AR (human, UniProt P07550 2-365)
testDescription: cell-based or functional assay
Exercise: for every item that follows, state its recorded Shift.
Respond using a number only.

Task: Suppose we examine the binder Ac-FNDCRDIIQRMHLRQYELL-OH [compound 2] ; what Shift value has been reported?
Result: 9

Task: Now this one: Ac-FNDCRDIIQRMHLRQAELL-OH [compound 78]
Result: 1

Task: Now this one: Ac-FNDCRDIIQRMHLRQYELA-OH [compound 79]
Result: 1

Task: Now this one: Ac-FNDCRDIIQRMHLRQYEAL-OH [compound 76]
Result: 1

Task: Now this one: Ac-FNDCRDIIQRMHLRQYALL-OH [compound 77]
Result: 5
